- tested_on: Brainiac β1-3-N-acetylglucosaminyltransferase (Drosophila melanogaster, UniProt Q24157)
- Construct: The full coding region of Brainiac was prepared by PCR using genomic DNA; made in house; host or cells: High Five insect cells (baculovirus vector pVL1393); microsomal fractions
- Sequence (Q24157 whole entry): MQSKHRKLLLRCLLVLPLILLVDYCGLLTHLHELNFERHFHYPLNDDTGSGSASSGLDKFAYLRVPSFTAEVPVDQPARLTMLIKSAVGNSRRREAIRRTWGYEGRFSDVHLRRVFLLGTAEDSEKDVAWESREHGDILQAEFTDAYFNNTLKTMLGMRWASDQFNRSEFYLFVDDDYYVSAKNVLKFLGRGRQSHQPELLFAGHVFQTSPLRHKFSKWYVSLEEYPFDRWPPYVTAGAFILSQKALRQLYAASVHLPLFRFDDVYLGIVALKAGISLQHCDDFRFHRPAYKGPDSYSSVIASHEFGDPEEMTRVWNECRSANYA
- test_summary: Substrate specificities of Brainiac β1-3-N-acetylglucosaminyltransferase (acceptor panel, microsomal preparations)
- Assay type: biochemical
- test_conditions: substrate 20 mM; microsomes of pVL-Brainiac infected High Five cells; background of irrelevant construct subtracted; donor UDP-GlcNAc
measurement_kind: Brainiac activity with substrate (nmol/h/mg)

Example entries begin here.
1. CO[C@H]1O[C@H](CO)[C@@H](O)[C@H](O)[C@@H]1O[C@@H]1O[C@H](CO)[C@@H](O)[C@H](O)[C@@H]1O	0.16
2. OC[C@H]1O[C@H](OC[C@H]2O[C@H](OCc3ccccc3)[C@@H](O)[C@@H](O[C@H]3O[C@H](CO)[C@@H](O)[C@H](O)[C@@H]3O)[C@@H]2O)[C@@H](O)[C@@H](O)[C@@H]1O	0.08
3. OC[C@H]1O[C@@H](O[C@H]2[C@H](O)[C@H](O)C(O)O[C@@H]2CO)[C@H](O)[C@@H](O)[C@H]1O (some centres unmarked)	8.39

P. CC(=O)N[C@H]1[C@H](O[C@H]2[C@@H](O)[C@@H](CO)O[C@@H](O[C@H]3[C@H](O)[C@@H](O)C(O)O[C@@H]3CO)[C@@H]2O)O[C@H](CO)[C@@H](O)[C@@H]1O[C@@H]1O[C@H](CO)[C@H](O)[C@H](O)[C@H]1O (some centres unmarked)
Q. C[C@H]1OC(O)[C@H](O)[C@@H](O)[C@H]1O (some centres unmarked)
stdin: Given P and Q , report the one with the higher recorded Brainiac activity with substrate. // respond with label for picked entry
stdout: Q
